target: beta-lactamase Sml-1 (rSml-1); construct: recombinant Sml-1 produced in E. coli BL21(DE3) RIL with pelB leader and C-terminal Gly-Leu-Glu-(His)6; experiment: inhibition of nitrocefin hydrolysis at […] nm; Ki from IC50 ([…]) by Cheng-Prusoff; assay type: biochemical, Streptomyces mobaraensis
reported-endpoint: pKi
Answers are plain numbers, as −log10 of the molar value.

// lookup pKi | system=beta-lactamase Sml-1 (rSml-1) | key= CC1(C)S[C@@H]2[C@H](NC(=O)Cc3ccccc3)C(=O)N2[C@H]1C(=O)O
4.00
